Cited source for all entries: patent US20120014950A1

Each entry below carries its recorded Kd.
- target_of_assay: T1, human DR3-Fc fusion protein (human, UniProt Q93038 25-199)
- T1 construct: also called hDR3-Fc; not shown: Fc portion
- T1 sequence: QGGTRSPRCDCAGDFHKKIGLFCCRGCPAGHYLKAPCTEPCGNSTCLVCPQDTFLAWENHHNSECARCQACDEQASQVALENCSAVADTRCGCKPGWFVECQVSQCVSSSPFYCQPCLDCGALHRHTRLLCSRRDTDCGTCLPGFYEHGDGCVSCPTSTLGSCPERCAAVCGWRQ
- experiment_summary: BIAcore SPR; human DR3-Fc amine-coupled to CM5 chip, Fab in flow; 1:1 model; average of n=2
Expressed in nM, but write only the number.

Q: State, in one line, measured Kd of H0L0-Fab (Fab, V domains shown, also called 11H08-Fab; parental anti-DR3 molecule) VH: EVMLVESGGGLVKPGGSLKLSCAASGFTFTNYAMSWVRQTPEKRLEWVATITSGGSYIYYLDSVKGRFTISRDNAKSTLYLQMSSLRSEDTAIYNCARRKDGNYYYAMDYWGQGTSVTVSS VL: DIVLTQSPASLAVSLGQRATISCRASESVDSYGNSFIHWYQQKAGQPPKLLIYRASNLESGIPARFSGSGSRTDFTLTINPVEADDVATYYCQQSYEDPWTFGGGTKLEIKR
Ans: 1.37

Q: State, in one line, measured Kd of H4.2L2-Fab (Fab, V domains shown) VH: QVQLVQSGSELKKPGASVKVSCKASGFTFTNYAMSWVRQAPGKRLEWVATITSGGSYIYYLDSVKGRFTISRENAKSTLYLQMNSLRTEDTALYYCARRKDGNYYYAMDYWGQGTTVTVSS VL: DIVLTQSPSSLSASVGDRVTITCRASESVDSYGNSFIHWYQQKPGQPPKLLIYRASNLESGIPARFSGSGSRTDFTLTISSLQPEDFATYYCQQSYEDPWTFGGGTKLEIKR
Ans: 2.01

***
Q: State, in one line, measured Kd of H0.1L0-Fab (Fab, V domains shown) VH: EVMLVESGGGLVKPGGSLKLSCAASGFTFTNYAMSWVRQTPEKRLEWVATITSGGSYIYYLDSVKGRFTISRDNAKSTLYLQMSSLRSEDTAIYYCARRKDGNYYYAMDYWGQGTSVTVSS VL: DIVLTQSPASLAVSLGQRATISCRASESVDSYGNSFIHWYQQKAGQPPKLLIYRASNLESGIPARFSGSGSRTDFTLTINPVEADDVATYYCQQSYEDPWTFGGGTKLEIKR
Ans: 1.5

Q: State, in one line, measured Kd of H1.1L4-Fab (Fab, V domains shown) VH: EVQLVESGGGLVKPGGSLRLSCAASGFTFTNYAMSWVRQAPGQRLEWVSTITSGGSYIYYLDSVKGRFTISRDNAKSTLYLQMNSLRAEDTAVYYCARRKDGNYYYAMDYWGQGTTVTVSS VL: DIVLTQTPLSLSVTPGQPASISCRASESVDSYGNSFIHWYQQKPGQPPKLLIYRASNLESGIPARFSGSGSRTDFTLKISRVEAEDVGVYYCQQSYEDPWTFGGGTKLEIKR
Ans: 1.29

Q: State, in one line, measured Kd of H5.3L4-Fab (Fab, V domains shown) VH: EVMLLQSGAEVKKPGASVKVSCKASGFTFTNYAMSWVRQAPGQRLEWVATITSGGSYIYYLDSVKGRFTISRDNAKSTLHLQMNSLRAEDTAVYYCARRKDGNYYYAMDYWGQGTTVTVSS VL: DIVLTQTPLSLSVTPGQPASISCRASESVDSYGNSFIHWYQQKPGQPPKLLIYRASNLESGIPARFSGSGSRTDFTLKISRVEAEDVGVYYCQQSYEDPWTFGGGTKLEIKR
Ans: 1.76
